B1: library; a variant is named by its letters at N, in order (parent)
chain: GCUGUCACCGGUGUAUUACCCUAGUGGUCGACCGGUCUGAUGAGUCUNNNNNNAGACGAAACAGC

# Variants of: B1
# procedure text: normalized RNA/DNA level with ligand (relative to sTRSVctl = 100) (log10 (% of sTRSVctl)); ligand: hypoxanthine (xanthine aptamer); higher = less ribozyme self-cleavage, higher mRNA level
# applied conditions: ligand concentration (+) RNA-Seq: 5 mM, HEK293T, reporter: mCherry (pCS4076), ligand present: yes
parameter: normalized RNA/DNA level with ligand (log10)
Reply briefly: the number, and no unit.

Examples from the recorded data:
GGCUUG : 1.93
AGUAGA : 1.83
CUGGGG : 1.86
GCUCUA : 1.94
AAUGCU : 1.92

normalized RNA/DNA level with ligand (log10) recorded for this variant, CGGACC , is 1.94

Origin of the recorded values: the supplement of paper PMC6757056
